Test system: WPMY1-GM130-SQSTM1
assay protocol: lowest phenotypically active concentration; higher = less potent
run parameters: treatment time: 24 h
quantity name: lowest phenotypically active concentration (µM)
Note: unit µM is implicit; provide only the numeric part.

[[record]]
compound = "CN1CCCC(n2nc(Cc3ccc(Cl)cc3)c3ccccc3c2=O)CC1 (stereo not drawn)"
quantitative_result = 9

[[record]]
compound = "C[C@@H]1CN(CC(=O)Nc2ccc3c(c2)Cc2cccc(-c4cc(=O)cc(N5CCOCC5)o4)c2S3)C[C@H](C)O1"
quantitative_result = 3

[[record]]
compound = "O=C1Nc2ccc(F)cc2C1=C1Nc2ccccc2C1=NO"
quantitative_result = 1

[[record]]
compound = "CC(C)(C)c1cc(NC(=O)Nc2ccc(-c3cn4c(n3)sc3cc(OCCN5CCOCC5)ccc34)cc2)no1"
quantitative_result = 9


Then this compound:
Tell me the measured lowest phenotypically active concentration of "COc1cc(N2CCC(N3CCN(C)CC3)CC2)ccc1Nc1ncnc(Nc2ccccc2S(=O)(=O)C(C)C)n1" , please. 9

* * *

System: HepG2-ACTB-RAB5A
assay protocol: phenotypically active (imaging signature differs from DMSO and reproducible) at any of 0.3-9 uM (binary (1 = active, 0 = inactive)); higher = active
run parameters: treatment time: 24 h
quantity name: phenotypically active
Number only, no unit.

Take a look at these entries with their results.
[[record]]
molecule = "NS(=O)(=O)c1cc2c(cc1Cl)NC(C(Cl)Cl)NS2(=O)=O (stereo unspecified) [trichlormethiazide]"
quantitative_result = 0

[[record]]
molecule = "CC(C(=O)O)c1cccc(C(=O)c2ccccc2)c1 (stereo unspecified) [ketoprofen]"
quantitative_result = 0

[[record]]
molecule = "NCCc1ccc(O)c(O)c1 [dopamine]"
quantitative_result = 0

[[record]]
molecule = "COCc1nc2c([nH]1)c(=O)n(C)c(=O)n2CC(C)C"
quantitative_result = 0

[[record]]
molecule = "c1ccc(CC2=NCCN2)cc1 [tolazoline]"
quantitative_result = 0

[[record]]
molecule = "Cc1noc(C)c1-c1cc(O)cc(C(O)c2ccccc2)c1 (stereo unspecified)"
quantitative_result = 1

[[record]]
molecule = "COc1cc2ncnc(Oc3cccc(NC(=O)Nc4cc(C(C)(C)C(F)(F)F)on4)c3)c2cc1OC"
quantitative_result = 0

[[record]]
molecule = "COc1ccc(C[C@@H]2c3cc(OC)c(OC)cc3CC[N@+]2(C)CCC(=O)OCCCCCOC(=O)CC[N@@+]2(C)CCc3cc(OC)c(OC)cc3[C@H]2Cc2ccc(OC)c(OC)c2)cc1OC [Cisatracurium besylate]"
quantitative_result = 0


Requested read-out: phenotypically active. Entry: FC(F)OC(F)C(F)(F)F (stereo unspecified) [desflurane] 0

GET /values?readout=phenotypically active&item= COc1c(C=O)c(O)cc2c1C(=O)c1ccccc1C2=O [Damnacanthal] 1

* * *

Tested on: HepG2-GM130-SQSTM1
assay protocol: lowest phenotypically active concentration; higher = less potent
run parameters: treatment time: 24 h
Counter-ions that a name gives are not always drawn.
Each record here notes measured lowest phenotypically active concentration.
# value in µM; strip the unit string

[[record]]
molecule = "CN1CCCC(n2nc(Cc3ccc(Cl)cc3)c3ccccc3c2=O)CC1 (configuration not stated)"
unit_symbol = "µM"
quantitative_result = 9

[[record]]
molecule = "Cc1ccc2nc(NCCN)c3ncc(C)n3c2c1"
unit_symbol = "µM"
quantitative_result = 3

[[record]]
molecule = "CCCc1cc2c(N3CCN(C4=NCC(C)(C)S4)CC3)ncnc2s1 [MI 2 dihydrochloride]"
unit_symbol = "µM"
quantitative_result = 9

[[record]]
molecule = "CC[C@H](CO)Nc1nc(Nc2cccc(-c3ccccn3)c2)c2ncn(C(C)C)c2n1 [(R)-DRF053 dihydrochloride]"
unit_symbol = "µM"
quantitative_result = 9

[[record]]
molecule = "O=C1Cc2c([nH]c3ccc(Br)cc23)-c2ccccc2N1"
unit_symbol = "µM"
quantitative_result = 3

[[record]]
molecule = "O=C(Nc1ccc(-c2ccnc(Nc3ccc(N4CCOCC4)cc3)n2)cc1)[C@@H]1CCCN1"
unit_symbol = "µM"
quantitative_result = 3

[[record]]
molecule = "COc1ccc2c(NC(=O)Nc3cccc(C(F)(F)F)n3)ccnc2c1"
unit_symbol = "µM"
quantitative_result = 9

[[record]]
molecule = "CC(C)CCN1c2nc(Nc3cc(F)c(O)c(F)c3)ncc2N(C)C(=O)C1C (configuration not stated)"
unit_symbol = "µM"
quantitative_result = 1


Kindly review the next molecule as well.
Can you share its lowest phenotypically active concentration? I mean this molecule: "Cc1nc2sccn2c(=O)c1CCN1CCC(=C(c2ccc(F)cc2)c2ccc(F)cc2)CC1" 9

* * *

Tested on: WPMY1-TP53BP1-CLTA
assay protocol: phenotypically active (imaging signature differs from DMSO and reproducible) at any of 0.3-9 uM (binary (1 = active, 0 = inactive)); higher = active
run parameters: treatment time: 24 h
Structures can show the parent of a compound that is named as a salt.
The following compounds are listed with their measured phenotypically active values.
Please respond with just the number, no unit label.

Previously resolved entries follow.
[[record]]
compound = "CCCCCCC(=O)OC1CC(C)(C)NC(C)(C)C1 [TMPH hydrochloride]"
quantity_name = "phenotypically active"
quantitative_result = 0

[[record]]
compound = "CCc1cncnc1N1CCN(Cc2nc3cc(C(F)(F)F)ccc3[nH]2)CC1"
quantity_name = "phenotypically active"
quantitative_result = 0

[[record]]
compound = "C[n+]1cccc(C(=O)O)c1 [Trigonelline hydrochloride]"
quantity_name = "phenotypically active"
quantitative_result = 0

[[record]]
compound = "OCc1cc(C(O)CNCCCCCCOCCCCc2ccccc2)ccc1O (stereo unspecified)"
quantity_name = "phenotypically active"
quantitative_result = 1

[[record]]
compound = "CCCNCC(O)COc1ccccc1C(=O)CCc1ccccc1 (stereo unspecified)"
quantity_name = "phenotypically active"
quantitative_result = 1


So what does the record say about phenotypically active for "O=C(O)COc1ccc(Br)cc1/C=C1\SC(=S)N(Cc2cccnc2)C1=O" ? 0

What value of phenotypically active has been reported for the following compound? COc1ccc(Cl)cc1C(=O)NCCc1ccc(S(=O)(=O)NC(=O)NC2CCCCC2)cc1 [glyburide] 0

* * *

Test system: A549-TUBA1B-RELA
assay protocol: phenotypically active (imaging signature differs from DMSO and reproducible) at any of 0.3-9 uM (binary (1 = active, 0 = inactive)); higher = active
run parameters: treatment time: 24 h
Would you mind answering with one of these outcomes? class 1 for active, class 0 for inactive

Field: example entries. Status: answers known.
[[record]]
compound = "COc1cc(N2CCC(N)CC2)ccc1Nc1ncc(Cl)c(-c2c[nH]c3ccccc23)n1"
label = "class 1"

[[record]]
compound = "CCOC(=O)Nc1cc(-c2ccc(C)c(NS(C)(=O)=O)c2)nn2c(C)nnc12"
label = "class 1"

[[record]]
compound = "CNS(=O)(=O)CCc1ccc2[nH]cc(C3CCN(C)CC3)c2c1"
label = "class 0"

[[record]]
compound = "Cc1ccc(NC(=O)c2cccc(C(C)(C)C#N)c2)cc1Nc1ccc2ncn(C)c(=O)c2c1"
label = "class 1"

[[record]]
compound = "C[C@H](NCCc1ccc(O)cc1)[C@H](O)c1ccc(O)cc1"
label = "class 0"


State the result this test recorded for COc1ccccc1OCCNCC(O)COc1cccc2[nH]c3ccccc3c12 (stereo not drawn) . class 1

* * *

Test system: HepG2-TP53BP1-CLTA
assay protocol: phenotypically active (imaging signature differs from DMSO and reproducible) at any of 0.3-9 uM (binary (1 = active, 0 = inactive)); higher = active
run parameters: treatment time: 24 h
Hello, when you answer, please use one of the following outcomes: active, inactive

Hi, sorry to bother you, what did the test record for CC(=O)N1CCN(c2ccc(OC[C@H]3CO[C@](Cn4ccnc4)(c4ccc(Cl)cc4Cl)O3)cc2)CC1 [Ketoconazole] ? inactive

Answer briefly: the call reported for "COc1cc2c(NC3CCN(C(C)C)CC3)nc(N3CCC(F)(F)CC3)nc2cc1OCCCN1CCCC1" in this assay. active

* * *

Test system: A549-ACTB-RAB5A
assay protocol: phenotypically active (imaging signature differs from DMSO and reproducible) at any of 0.3-9 uM (binary (1 = active, 0 = inactive)); higher = active
run parameters: treatment time: 24 h
quantity name: phenotypically active
Give a plain numeric answer without units written out.

[[record]]
molecule = "CC(C)(C)c1cc(C(=O)/C=C/c2ccc(C(=O)O)cc2)cc(C(C)(C)C)c1"
quantity_name = "phenotypically active"
quantitative_result = 1

[[record]]
molecule = "COc1ccc([C@@H]2CNC(=O)C2)cc1OC1CCCC1 [(R)-(-)-Rolipram]"
quantity_name = "phenotypically active"
quantitative_result = 0

[[record]]
molecule = "O=C(NOCC1CC1)c1ccc(F)c(F)c1Nc1ccc(I)cc1Cl"
quantity_name = "phenotypically active"
quantitative_result = 1


What phenotypically active appears in the records for this molecule with A549-ACTB-RAB5A? "C=CC(=O)Nc1cccc(Nc2nc(Nc3ccc(OCCOC)cc3)ncc2F)c1" 1

Give recorded phenotypically active with A549-ACTB-RAB5A for the following molecule: "O=C(NCCCNc1nc(Nc2cccc(NC(=O)N3CCCC3)c2)ncc1I)c1cccs1" 1
